Entries annotated with measured 60 nM Artemin mAb Bound (RU)
Target: T1, MfArtemin-MMH (cynomolgous monkey (Macaca fascicularis))
T1 construct: also called mfARTN.mmh; mfARTN (A108-G22).mmh
T1 chain: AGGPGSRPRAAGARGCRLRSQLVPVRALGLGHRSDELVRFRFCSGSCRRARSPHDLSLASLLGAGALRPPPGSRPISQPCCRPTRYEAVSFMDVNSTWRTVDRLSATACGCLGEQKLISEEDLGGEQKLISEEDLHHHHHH
Test: SPR Biacore T200, MfArtemin-MMH captured by anti-myc mAb, mAb injected, 25 C
I only need the number, in RU, no unit after it.

H4H33349P (antibody, human IgG4 S228P, kappa, V domains shown, Fully human antibody; also called Artemin mAb; anti-ARTN antibody) VH: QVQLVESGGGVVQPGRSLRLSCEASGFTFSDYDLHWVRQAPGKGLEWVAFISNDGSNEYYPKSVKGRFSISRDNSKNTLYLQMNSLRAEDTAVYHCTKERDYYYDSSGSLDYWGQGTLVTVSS VL: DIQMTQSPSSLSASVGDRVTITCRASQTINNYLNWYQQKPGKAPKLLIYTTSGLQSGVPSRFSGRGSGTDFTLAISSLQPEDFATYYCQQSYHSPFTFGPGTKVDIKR : 14

Kindly note the recorded 60 nM Artemin mAb Bound (RU) for H4H33331P (antibody, human IgG4 S228P, kappa, V domains shown, Fully human antibody (human variable and constant domains) from a VELOCIMMUNE mouse; also called Artemin mAb; anti-ARTN antibody) VH: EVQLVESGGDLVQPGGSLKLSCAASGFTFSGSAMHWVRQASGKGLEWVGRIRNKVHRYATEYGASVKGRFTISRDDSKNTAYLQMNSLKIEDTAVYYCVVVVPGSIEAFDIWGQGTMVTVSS VL: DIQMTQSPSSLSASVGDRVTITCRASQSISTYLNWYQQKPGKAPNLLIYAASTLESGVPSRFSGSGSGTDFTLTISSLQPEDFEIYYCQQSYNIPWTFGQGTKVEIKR , which is 5

Kindly note the recorded 60 nM Artemin mAb Bound (RU) for H4H33335P (antibody, human IgG4 S228P, kappa, V domains shown, Fully human antibody; also called Artemin mAb; anti-ARTN antibody) VH: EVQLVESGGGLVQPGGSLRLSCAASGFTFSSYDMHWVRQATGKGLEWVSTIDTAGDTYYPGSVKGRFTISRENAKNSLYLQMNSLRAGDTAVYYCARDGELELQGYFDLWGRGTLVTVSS VL: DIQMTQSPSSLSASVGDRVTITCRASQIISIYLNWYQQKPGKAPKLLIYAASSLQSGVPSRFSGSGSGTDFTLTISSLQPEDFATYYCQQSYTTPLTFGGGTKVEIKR , which is 3

Kindly note the recorded 60 nM Artemin mAb Bound (RU) for H4H33336P (antibody, human IgG4 S228P, kappa, V domains shown, Fully human antibody; also called Artemin mAb; anti-ARTN antibody) VH: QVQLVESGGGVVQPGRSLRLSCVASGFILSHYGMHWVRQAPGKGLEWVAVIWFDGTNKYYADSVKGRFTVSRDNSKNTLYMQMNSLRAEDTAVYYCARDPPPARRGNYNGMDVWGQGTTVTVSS VL: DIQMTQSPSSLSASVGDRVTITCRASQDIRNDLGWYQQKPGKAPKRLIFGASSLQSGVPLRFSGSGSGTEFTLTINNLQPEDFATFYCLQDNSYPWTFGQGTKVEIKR , which is 11

Every entry's value here was drawn from patent US20240352111A1.
